Target: ADP-ribosyl cyclase/cyclic ADP-ribose hydrolase 1 (Homo sapiens)
Sequence (P28907 whole entry): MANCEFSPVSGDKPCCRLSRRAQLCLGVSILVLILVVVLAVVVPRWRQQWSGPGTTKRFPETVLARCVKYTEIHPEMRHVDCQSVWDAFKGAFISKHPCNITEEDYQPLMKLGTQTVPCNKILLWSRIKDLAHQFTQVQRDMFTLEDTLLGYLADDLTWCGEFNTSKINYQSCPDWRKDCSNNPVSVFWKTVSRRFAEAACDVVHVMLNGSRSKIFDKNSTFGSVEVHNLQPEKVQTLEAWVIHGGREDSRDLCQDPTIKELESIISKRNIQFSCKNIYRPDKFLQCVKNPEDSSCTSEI
Assay: Inhibition of human CD38 by HPLC analysis
recorded_metric: IC50 (µM)

Example entries and their recorded answers appear below.
| given_smiles | IC50, µM |
| --- | --- |
| COc1cc(/C=N\NC(=O)c2ccoc2C)ccc1O | 103 |
| Cc1occc1C(=O)N/N=C\c1ccc(O)c(O)c1 | 109 |

(1) Cc1occc1C(=O)N/N=C\c1cccc(F)c1O
(2) Cc1occc1C(=O)N/N=C\c1cccc(Cl)c1O
(3) Cc1occc1C(=O)NNC(=O)c1ccccc1O
(4) Cc1occc1C(=O)N/N=C\c1ccccc1
(5) Cc1occc1C(=O)N/N=C\c1ccccc1O
Ask: # ascending order, key=IC50 Provide the labels, sequenced as the question asks.
Reply: 2, 1, 3, 4, 5
